# Test system: Escherichia coli
# MEASUREMENT_PROTOCOL: Antibacterial activity against Escherichia coli ATCC 25922 after 24 hrs by MTT assay
# Type: functional
# CONDITION_PARAMETERS: ATCC 25922, 24 h
TEST_READOUT: MIC

Exercise: Param request: MIC | system Escherichia coli | item O=C(N/N=C/c1ccc(I)cc1)c1ccc2c(c1)OCCCO2
Solution: 25 µg/mL

Exercise: Param request: MIC | system Escherichia coli | item Cc1ccccc1/C=N/NC(=O)c1ccc2c(c1)OCCCO2
Solution: > 100 µg/mL

Exercise: Param request: MIC | system Escherichia coli | item O=C(N/N=C/c1ccccc1Cl)c1ccc2c(c1)OCCCO2
Solution: 25 µg/mL

Exercise: Param request: MIC | system Escherichia coli | item Cc1cccc(/C=N/NC(=O)c2ccc3c(c2)OCCCO3)c1
Solution: 50 µg/mL

Exercise: Param request: MIC | system Escherichia coli | item CN(C)c1ccc(/C=N/NC(=O)c2ccc3c(c2)OCCCO3)c(O)c1
Solution: 12.5 µg/mL

Exercise: Param request: MIC | system Escherichia coli | item O=C(N/N=C/c1ccc(-c2ccccc2)cc1)c1ccc2c(c1)OCCCO2
Solution: 3.13 µg/mL

Exercise: Param request: MIC | system Escherichia coli | item CN(C)c1ccc(/C=N/NC(=O)c2ccc3c(c2)OCCCO3)cc1
Solution: 6.25 µg/mL

Exercise: Param request: MIC | system Escherichia coli | item O=C(N/N=C/c1ccc(F)cc1)c1ccc2c(c1)OCCCO2
Solution: 12.5 µg/mL

Exercise: Param request: MIC | system Escherichia coli | item O=C(N/N=C/c1ccc(C(F)(F)F)cc1)c1ccc2c(c1)OCCCO2
Solution: 25 µg/mL

Exercise: Param request: MIC | system Escherichia coli | item O=C(N/N=C/c1ccc(O)c(O)c1)c1ccc2c(c1)OCCCO2
Solution: 12.5 µg/mL

Exercise: Param request: MIC | system Escherichia coli | item O=C(N/N=C/c1ccc(O)c([N+](=O)[O-])c1)c1ccc2c(c1)OCCCO2
Solution: 6.25 µg/mL

* * *

Recorded MIC for the following molecules
# System: Pseudomonas aeruginosa
# MEASUREMENT_PROTOCOL: Antibacterial activity against Pseudomonas aeruginosa ATCC 27853 after 24 hrs by MTT assay
# Assay type: functional
# CONDITION_PARAMETERS: ATCC 27853, 24 h
All answers are understood in µg/mL, so give the number only.

O=C(N/N=C/c1ccc(Cl)c([N+](=O)[O-])c1)c1ccc2c(c1)OCCCO2	6.25
O=C(N/N=C/c1cc([N+](=O)[O-])ccc1O)c1ccc2c(c1)OCCCO2	3.13
Cc1cccc(/C=N/NC(=O)c2ccc3c(c2)OCCCO3)c1	25
O=C(N/N=C/c1ccc(C(F)(F)F)cc1)c1ccc2c(c1)OCCCO2	12.5
O=C(N/N=C/c1ccc(F)cc1)c1ccc2c(c1)OCCCO2	25

# evaluate next
Exercise: Tell me measured MIC for O=Cc1ccccc1/C=N/NC(=O)c1ccc2c(c1)OCCCO2 please.
Solution: 25

* * *

# System: Escherichia coli
# MEASUREMENT_PROTOCOL: Antibacterial activity against Escherichia coli ATCC 25922 after 24 hrs by MTT assay
# Format: functional
# CONDITION_PARAMETERS: ATCC 25922, 24 h
Recorded MIC for the following compounds
All answers are understood in µg/mL, so give the number only.

For orientation, consider the following solved cases.
O=C(N/N=C/c1cccc2ccccc12)c1ccc2c(c1)OCCCO2	3.13
NC[C@H]1O[C@H](O[C@H]2[C@H](O)[C@@H](O[C@H]3O[C@H](CO)[C@@H](O)[C@H](N)[C@H]3O)[C@H](N)C[C@@H]2N)[C@H](N)[C@@H](O)[C@@H]1O	3.13
O=C(N/N=C/c1cc([N+](=O)[O-])ccc1F)c1ccc2c(c1)OCCCO2	6.25

Exercise: Tell me measured MIC for COc1cc(/C=N/NC(=O)c2ccc3c(c2)OCCCO3)cc(OC)c1O please.
Solution: 3.13

Entry source: ChEMBL document CHEMBL3994564
